Assay: Tmax in rat at 20 mg/kg, po
Format: ADME, organism-based
Conditions: in vivo
Reported values of Tmax for individual entries
value kind: Tmax (h)

{"columns": ["structure", "value kind", "val"],
 "data": [
  ["C[C@H](Cc1cc2c(c(C(N)=O)c1)N(CCCO)CC2)NCCOc1cc(Cl)ccc1OCC(F)(F)F", "Tmax", 4],
  ["Cc1ccc(OCC(F)(F)F)c(OCCN[C@H](C)Cc2cc(C(N)=O)c3c(ccn3CCCO)c2)c1", "Tmax", 0.5]
]}

----------
Assay: MRT in rat at 10 mg/kg, iv
Assay type: ADME, organism-based
Conditions: in vivo

{"columns": ["structure", "MRT / h"],
 "data": [
  ["C[C@H](Cc1cc2c(c(C(N)=O)c1)N(CCCO)CC2)NCCOc1cc(Cl)ccc1OCC(F)(F)F", 2.34],
  ["Cc1ccc(OCC(F)(F)F)c(OCCN[C@H](C)Cc2cc(C(N)=O)c3c(ccn3CCCO)c2)c1", 2.94]
]}

----------
Assay: Tmax in rat at 10 mg/kg, iv
Assay type: ADME, organism-based
Conditions: in vivo
Parameter Tmax: see the listing below.
value kind: Tmax (min)

{"columns": ["structure", "val"],
 "data": [
  ["Cc1ccc(OCC(F)(F)F)c(OCCN[C@H](C)Cc2cc(C(N)=O)c3c(ccn3CCCO)c2)c1", 4.98],
  ["C[C@H](Cc1cc2c(c(C(N)=O)c1)N(CCCO)CC2)NCCOc1cc(Cl)ccc1OCC(F)(F)F", 4.98]
]}

----------
Test: MRT in rat at 20 mg/kg, po
Format: ADME, organism-based
Details: in vivo
Reported MRT by item:

{"columns": ["structure", "MRT"],
 "data": [
  ["Cc1ccc(OCC(F)(F)F)c(OCCN[C@H](C)Cc2cc(C(N)=O)c3c(ccn3CCCO)c2)c1", "3.54 h"],
  ["C[C@H](Cc1cc2c(c(C(N)=O)c1)N(CCCO)CC2)NCCOc1cc(Cl)ccc1OCC(F)(F)F", "6.22 h"]
]}

----------
Measured Cmax of individual entries
Assay: Cmax in rat at 20 mg/kg, po
Assay type: ADME, organism-based
Parameters: dose 20 mg/kg, route oral
Conditions: in vivo

{"columns": ["structure", "unit of measurement", "Cmax"],
 "data": [
  ["C[C@H](Cc1cc2c(c(C(N)=O)c1)N(CCCO)CC2)NCCOc1cc(Cl)ccc1OCC(F)(F)F", "ng/mL", 152],
  ["Cc1ccc(OCC(F)(F)F)c(OCCN[C@H](C)Cc2cc(C(N)=O)c3c(ccn3CCCO)c2)c1", "ng/mL", 109]
]}

----------
Test: Oral bioavailability in rat at 20 mg/kg
Type: ADME, organism-based
Conditions: in vivo

{"columns": ["structure", "bioavailability / %"],
 "data": [
  ["C[C@H](Cc1cc2c(c(C(N)=O)c1)N(CCCO)CC2)NCCOc1cc(Cl)ccc1OCC(F)(F)F", 24.3],
  ["Cc1ccc(OCC(F)(F)F)c(OCCN[C@H](C)Cc2cc(C(N)=O)c3c(ccn3CCCO)c2)c1", 7]
]}

----------
Assay: Apparent clearance in rat at 10 mg/kg, iv
Type: ADME, organism-based
Settings: in vivo, read-out: CL(app) (converted)
value kind: clearance (mL/min/kg)

{"columns": ["structure", "val"],
 "data": [
  ["C[C@H](Cc1cc2c(c(C(N)=O)c1)N(CCCO)CC2)NCCOc1cc(Cl)ccc1OCC(F)(F)F", 47.5],
  ["Cc1ccc(OCC(F)(F)F)c(OCCN[C@H](C)Cc2cc(C(N)=O)c3c(ccn3CCCO)c2)c1", 37.9]
]}

Provenance of the data: ChEMBL document CHEMBL3808304
